target: CYP2C9 (Homo sapiens); experiment: Inhibition of CYP2C9 (unknown origin) assessed as tolbutamide hydroxylation to […] at 10 uM; assay type: ADME; conditions: probe tolbutamide
Sequence (P11712 whole entry): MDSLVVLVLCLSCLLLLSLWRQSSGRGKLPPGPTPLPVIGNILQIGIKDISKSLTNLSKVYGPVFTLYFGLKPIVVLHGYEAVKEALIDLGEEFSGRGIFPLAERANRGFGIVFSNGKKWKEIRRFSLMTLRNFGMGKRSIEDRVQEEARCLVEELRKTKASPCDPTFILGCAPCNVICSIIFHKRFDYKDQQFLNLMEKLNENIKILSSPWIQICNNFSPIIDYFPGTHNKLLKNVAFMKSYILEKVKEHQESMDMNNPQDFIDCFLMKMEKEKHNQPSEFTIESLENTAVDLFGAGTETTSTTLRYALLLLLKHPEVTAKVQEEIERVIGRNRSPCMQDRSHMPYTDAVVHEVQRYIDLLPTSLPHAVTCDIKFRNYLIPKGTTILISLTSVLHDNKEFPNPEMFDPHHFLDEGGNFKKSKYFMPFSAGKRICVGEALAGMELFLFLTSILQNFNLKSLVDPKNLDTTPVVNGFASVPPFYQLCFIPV
Label Criterion met for high-side inhibition at 10 µM (at or above 50%) and Criterion not met for low-side inhibition at 10 µM (below it).

## Task Has O=C(Nc1cnn(-c2cccc(C(=O)Nc3cnn(C4CCNC4)c3)c2)c1)Nc1ccccc1Cl (stereo not given) a recorded inhibition at 10 µM greater than or equal to 50%?
## Result Criterion met

## Task Same thing, different compound: "Cc1cc(NC(=O)c2cccc(-n3cc(NC(=O)Nc4ccccc4Cl)cn3)c2)cc(C)n1"
## Result Criterion not met

## Task Same thing, different compound: "O=C(Nc1cnn(-c2cccc(C(=O)Nc3cnn(C4CCNCC4)c3)c2)c1)Nc1ccccc1Cl"
## Result Criterion not met

## Task Same thing, different compound: "Cc1ccc(CNC(=O)c2cccc(-n3cc(NC(=O)Nc4ccccc4Cl)cn3)c2)cn1"
## Result Criterion not met

## Task Same thing, different compound: "O=C(Nc1cnn(-c2cccc(C(=O)NCC3CCNCC3)c2)c1)Nc1ccccc1Cl"
## Result Criterion not met

## Task Same thing, different compound: "CN(C)CCn1cc(NC(=O)c2cccc(-n3cc(NC(=O)Nc4ccccc4Cl)cn3)c2)cn1"
## Result Criterion not met

## Task Same thing, different compound: "CCN(CC)CCNC(=O)c1cccc(-n2cc(NC(=O)Nc3ccccc3Cl)cn2)c1"
## Result Criterion not met

## Task Same thing, different compound: "Cc1ccc(NC(=O)c2ccc(F)c(-n3cc(NC(=O)Nc4ccccc4Cl)cn3)c2)cn1"
## Result Criterion met

## Task Same thing, different compound: "Cc1cc(NC(=O)c2cccc(-n3cc(NC(=O)Nc4ccccc4Cl)cn3)c2)ccn1"
## Result Criterion met

====

molecular target: CYP1A2 (Homo sapiens, UniProt P05177); test: Inhibition of CYP1A2 (unknown origin) assessed as phenaceten demethylation to acetaminophen at 10 uM; assay type: ADME; details: probe phenacetin (printed phenaceten)
Sequence (P05177 whole entry): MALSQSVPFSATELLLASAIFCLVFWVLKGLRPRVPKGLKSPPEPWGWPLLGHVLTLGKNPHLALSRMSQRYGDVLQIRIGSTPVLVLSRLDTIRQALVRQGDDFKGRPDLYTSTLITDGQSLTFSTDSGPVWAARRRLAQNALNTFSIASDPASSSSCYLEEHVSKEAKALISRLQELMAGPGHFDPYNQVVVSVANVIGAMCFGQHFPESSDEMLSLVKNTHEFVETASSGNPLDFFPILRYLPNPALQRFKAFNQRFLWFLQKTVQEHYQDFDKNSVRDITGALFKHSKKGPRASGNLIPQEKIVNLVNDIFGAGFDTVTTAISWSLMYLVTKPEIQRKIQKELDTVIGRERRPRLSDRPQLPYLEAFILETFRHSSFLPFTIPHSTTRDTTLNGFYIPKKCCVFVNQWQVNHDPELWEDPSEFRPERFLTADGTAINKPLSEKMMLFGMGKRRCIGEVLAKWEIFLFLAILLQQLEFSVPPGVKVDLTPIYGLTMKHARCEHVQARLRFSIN
Test Readout: inhibition at 10 µM (%)
Quick reminder: number only, in %, skip the unit.

## Task Fill in the recorded inhibition at 10 µM for this compound, with CYP1A2 (Homo sapiens, UniProt P05177) as test system: "CCN(CC)CCNC(=O)c1cccc(-n2cc(NC(=O)Nc3ccccc3Cl)cn2)c1"
## Result -12

## Task Same thing, different compound: "Cc1ccc(NC(=O)c2ccc(F)c(-n3cc(NC(=O)Nc4ccccc4Cl)cn3)c2)cn1"
## Result 19

## Task Same thing, different compound: "O=C(Nc1cnn(-c2cccc(C(=O)NCC3CCNCC3)c2)c1)Nc1ccccc1Cl"
## Result -8

## Task Same thing, different compound: "CN(C)CCn1cc(NC(=O)c2cccc(-n3cc(NC(=O)Nc4ccccc4Cl)cn3)c2)cn1"
## Result -5

## Task Same thing, different compound: "O=C(Nc1cnn(-c2cccc(C(=O)Nc3cnn(C4CCNCC4)c3)c2)c1)Nc1ccccc1Cl"
## Result 3

## Task Same thing, different compound: O=C(Nc1cnn(-c2cccc(C(=O)Nc3cnn(C4CCNC4)c3)c2)c1)Nc1ccccc1Cl (stereo not given)
## Result 38

## Task Same thing, different compound: "Cc1ccc(CNC(=O)c2cccc(-n3cc(NC(=O)Nc4ccccc4Cl)cn3)c2)cn1"
## Result 17

## Task Same thing, different compound: "Cc1cc(NC(=O)c2cccc(-n3cc(NC(=O)Nc4ccccc4Cl)cn3)c2)cc(C)n1"
## Result 10

## Task Same thing, different compound: "Cc1cc(NC(=O)c2cccc(-n3cc(NC(=O)Nc4ccccc4Cl)cn3)c2)ccn1"
## Result 17

## Task Same thing, different compound: "CC(C)n1cc(NC(=O)c2cccc(-n3cc(NC(=O)Nc4ccccc4Cl)cn3)c2)cn1"
## Result 15
